target: MUC4-Tn glycopeptide … (SEQ ID NO:154) with O-linked GalNAc on the serine and threonine at positions 12 and 13; assay: BLI (Octet), MUC4 glycopeptide on biosensor
Sequence (peptide, as listed by the source): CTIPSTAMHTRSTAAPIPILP
Result Type: Kd (nM)
Supply the numeric figure in nM, leaving out any unit text.

Q: Reported Kd, binder 2D5-HV1-3B/KV2B (antibody, V domains shown) VH: QVQLVQSGAEVKKPGASVKVSCKASGYTFTDHAIHWVRQAPGQRLEWLGYISPGNDDIQYSQKFKGRVTITADKSASTAYMELSSLRSEDTAVYYCKRSMANSFDYWGQGTLVTVSS VL: DIVMTQTPLSLPVTPGEPASISCRSSQSVLYSSDEKTYLAWYLQKPGQSPQLLIYWASTRESGVPDRFSGSGSGTDFTLKISRVEAEDVGVYYCHQYLSSYTFGQGTKLEIK : ____
Ans: 7.7

Q: One more binder: 2D5-HV1-69-B/KV2B (antibody, V domains shown) VH: QVQLVQSGAEVKKPGSSVKVSCKASGYTFTDHAIHWVRQAPGQGLEWLGYISPGNDDIQYNQKFKGRVTITADKSTSTAYMELSSLRSEDTAVYYCKRSMANSFDYWGQGTLVTVSS VL: DIVMTQTPLSLPVTPGEPASISCRSSQSVLYSSDEKTYLAWYLQKPGQSPQLLIYWASTRESGVPDRFSGSGSGTDFTLKISRVEAEDVGVYYCHQYLSSYTFGQGTKLEIK
Ans: 3.3

Q: Also, 2D5-HV1-69-C/KV2B (antibody, V domains shown) VH: QVQLVQSGAEVKKPGSSVKVSCKASGYTFSDHAIHWVRQAPGQGLEWLGYISPGNADINYAQKFQGRVTITADKSTSTAYMELSSLRSEDTAVYYCKRSMANSFDYWGQGTLVTVSS VL: DIVMTQTPLSLPVTPGEPASISCRSSQSVLYSSDEKTYLAWYLQKPGQSPQLLIYWASTRESGVPDRFSGSGSGTDFTLKISRVEAEDVGVYYCHQYLSSYTFGQGTKLEIK please.
Ans: 5.3

Q: Okay, and 2D5-HV1-69-A/KV2A (antibody, V domains shown) VH: QVQLVQSGAEVKKPGSSVKVSCKASGYTFTDHAIHWVRQAPGQGLEWLGYISPGNDDIQYNAKFKGRATLTADKSTSTAYMELSSLRSEDTAVYFCKRSMANSFDYWGQGTLVTVSS VL: DIVLTQTPLSLPVTPGEPASISCKSSQSVLYSSDQKNYLAWYLQKPGQSPQLLIYWASTRESGVPDRFSGSGSGTDFTLKISRVEAEDVGVYYCHQYLSSYTFGQGTKLEIK ?
Ans: 4.1
